Assayed system: SARS2 protease (Severe acute respiratory syndrome coronavirus 2)
Construct: SARS2 protease was added to a final concentration of 30 nM
Experiment description: SARS-CoV-2 protease inhibition assay (SARS2 FRET protease assay)
Type: biochemical
Experimental parameters: IC50 (μM), SARS2 protease 30 nM, peptide substrate 1.3 μM, 120 minutes at 37° C., compounds 20 μM to 0.075 nM
Recorded endpoint: log10 of IC50 (log10 of the value in µM)
Field: value | Transform: log10 | Quantity: IC50 | Unit: µM

CC(C)C[C@H](NC(=O)OC(C(C)C)C(F)(F)c1cccc(-c2ccccc2)c1)C(=O)N[C@H](C=O)C[C@@H]1CCNC1=O (stereo partly drawn) ... -2.52
CCCC[C@H](NC(=O)OC(c1ccccc1)C(F)(F)c1cccc(Cl)c1)C(=O)N[C@H](C=O)CC1CC(C)(C)NC1=O (stereo partly drawn) ... -0.33
O=C[C@H](C[C@@H]1CCNC1=O)NC(=O)[C@H](CC(F)F)NC(=O)OC(c1ccccc1)C(F)(F)c1cccc(Cl)c1 (stereo partly drawn) ... -1.66
CCC[C@H](NC(=O)OC(c1ccccc1)C(F)(F)c1cccc(F)c1)C(=O)N[C@H](C=O)C[C@@H]1CCNC1=O (stereo partly drawn) ... -1.70
O=C[C@H](C[C@@H]1CCNC1=O)NC(=O)[C@H](CC1CCC1)NC(=O)O[C@H](c1ccccc1)C(F)(F)c1cccc(Cl)c1 ... -3.70

Q: Requested field: log10 of IC50. Item: O=C(N[C@@H](CC1CCCCC1)C(=O)N[C@@H](C[C@@H]1CCNC1=O)C(O)S(=O)(=O)O)OC(c1ccccc1)C(F)(F)c1cccc(Cl)c1 (stereo partly drawn)
A: -2.05

Q: Param item: CCNC(=O)C(=O)[C@H](C[C@@H]1CCNC1=O)NC(=O)[C@H](CC1CCCCC1)NC(=O)OC(c1ccccc1)C(C)(C)c1cccc(F)c1 (stereo partly drawn)
A: -1.06

Q: Param item: CCCC[C@H](NC(=O)OC(c1ccccc1)C(F)(F)c1cccc(Cl)c1)C(=O)N[C@H](C=O)Cc1ccc[nH]c1=O (stereo partly drawn)
A: -0.80

Q: Param item: CC(C)C[C@H](NC(=O)O[C@H](c1ccc(F)cc1)C(F)(F)c1cccc(Cl)c1)C(=O)N[C@H](C=O)C[C@@H]1CCNC1=O
A: -4.00

Q: Param item: CC(C)C[C@H](NC(=O)OC(c1ccc(Cl)cc1)C1(c2cccc(Cl)c2)CCNCC1)C(=O)N[C@@H](C[C@@H]1CCNC1=O)C(=O)C(=O)NC1CC1 (stereo partly drawn)
A: 0.05

Q: Param item: CC(C)C[C@H](NC(=O)OC(c1ccc(Cl)cc1)C1(c2cccc(Cl)c2)CCN(C(=O)OC(C)(C)C)CC1)C(=O)N[C@@H](C[C@@H]1CCNC1=O)C(=O)C(=O)NC1CC1 (stereo partly drawn)
A: -0.20

Q: Param item: CCCC[C@H](NC(=O)OC(c1ccncc1)C(F)(F)c1cccc(Cl)c1)C(=O)N[C@H](C=O)C[C@@H]1CCNC1=O (stereo partly drawn)
A: -3.00

* * *

Assayed system: SARS2 protease (Severe acute respiratory syndrome coronavirus 2, UniProt P0DTD1)
Construct: SARS2 protease was added to a final concentration of 30 nM
Experiment description: SARS-CoV-2 protease inhibition assay (SARS2 FRET protease assay)
Format: biochemical
Experimental parameters: IC50 (μM), SARS2 protease 30 nM, peptide substrate 1.3 μM, 120 minutes at 37° C., compounds 20 μM to 0.075 nM
This listing pairs compounds with measured IC50.
Please reply with the bare figure in µM and do not write the unit itself.

// solved cases for IC50 follow
CC(C)C[C@H](NC(=O)OC(c1ccccc1)C(F)(F)c1cccc(C2CCC2)c1)C(=O)N[C@@H](C[C@@H]1CCNC1=O)C(=O)C(=O)NC1CC1 (some centres unmarked) [Compound A315] ... 0.051
CCCC[C@H](NC(=O)O[C@H](c1ccccc1)C(F)(F)c1cccc(Cl)c1)C(=O)N[C@@H](C[C@@H]1CCNC1=O)C(=O)C(=O)NC1CC1 [Compound A137] ... 0.0005
CCC[C@H](NC(=O)O[C@@H](c1ccccc1)C(F)(F)c1cccc(F)c1)C(=O)N[C@H](C=O)C[C@@H]1CCNC1=O [Compound A166] ... 0.0025
CCCC[C@H](NC(=O)O[C@@H](c1ccccc1)C(F)(F)c1cccc(Cl)c1)C(=O)N[C@@H](C[C@@H]1CCNC1=O)C(OC(=O)CC)S(=O)(=O)O (some centres unmarked) [Compound A213] ... 5.02
O=C(N[C@@H](CC1CCCCC1)C(=O)N[C@@H](C[C@H]1CCNC1=O)C(=O)C(=O)NC1CC1)OC(c1ccccc1)C(F)(F)c1cccc(Cl)c1 (some centres unmarked) [Compound A169] ... 1.25
CC(C)C[C@H](NC(=O)OC(c1ccccc1)C(F)(F)c1cccc(F)c1)C(=O)N[C@@H](C[C@@H]1CCNC1=O)C(=O)C(=O)NC1CC1 (some centres unmarked) [Compound A10] ... 0.005
CC(C)C[C@H]1C(=O)N[C@H](C[C@@H]2CCNC2=O)[C@H](O)N1C(=O)OC(c1ccccc1)C1(c2cccc(Cl)c2)CCNCC1 (some centres unmarked) [Compound A59] ... 16.1
CCNC(=O)C(=O)[C@H](C[C@@H]1CCNC1=O)NC(=O)[C@H](CC1(C)CCC1)NC(=O)O[C@H](c1ccccc1)C(F)(F)c1cccc(Cl)c1 [Compound A326] ... 0.367
O=C(N[C@@H](CC1CCCCC1)C(=O)N[C@@H](C[C@@H]1CCNC1=O)C(=O)C(=O)NC1CC1)O[C@H](c1ccccc1)C(F)(F)c1cccc(F)c1 [Compound A237] ... 0.003
CCCC[C@H](NC(=O)CC(O)(Cc1cccc(Cl)c1)c1ccccc1)C(=O)N[C@@H](C[C@@H]1CCNC1=O)C(=O)C(=O)NCC (some centres unmarked) [Compound A259] ... 0.413

Q: Requested field: IC50. Item: CCC(CC)(c1cccc(Cl)c1)C(OC(=O)N[C@@H](CC(C)C)C(=O)N[C@@H](C[C@@H]1CCNC1=O)C(=O)C(=O)NC1CC1)c1ccc(F)c(F)c1 (some centres unmarked) [Compound A22]
A: 0.32

* * *

Assayed system: SARS2 protease (Severe acute respiratory syndrome coronavirus 2)
Construct: SARS2 protease was added to a final concentration of 30 nM
Experiment description: SARS-CoV-2 protease inhibition assay (SARS2 FRET protease assay)
Type: biochemical
Experimental parameters: IC50 (μM), SARS2 protease 30 nM, peptide substrate 1.3 μM, 120 minutes at 37° C., compounds 20 μM to 0.075 nM
This listing pairs molecules with measured IC50.

O=C[C@H](C[C@@H]1CCNC1=O)NC(=O)[C@H](CCCF)NC(=O)OC(c1ccccc1)C(F)(F)c1cccc(Cl)c1 (stereo partly drawn) [Compound A219] ... 0.16 µM
CCCC[C@H](NC(=O)OC(c1cccc(F)c1)C(F)(F)c1cccc(Cl)c1)C(=O)N[C@H](C=O)C[C@@H]1CCNC1=O (stereo partly drawn) [Compound A99] ... 0.0006 µM
CCCC[C@H](NC(=O)OC(c1cnn(C)c1)C(F)(F)c1cccc(Cl)c1)C(=O)N[C@@H](C[C@@H]1CCNC1=O)C(=O)C(=O)NCC (stereo partly drawn) [Compound A319] ... 0.001 µM
CC(C)C[C@H](NC(=O)O[C@H](c1ccccc1)C(F)(F)c1cccc(C(C)C)c1)C(=O)N[C@@H](C[C@@H]1CCNC1=O)C(=O)C(=O)NC1CC1 [Compound A194] ... 0.005 µM
CC(C)C[C@H](NC(=O)O[C@@H](c1ccccc1)C(F)(F)c1cccc(C2CC2)c1)C(=O)N[C@@H](C[C@@H]1CCNC1=O)C(=O)C(=O)NC1CC1 [Compound A288] ... 0.26 µM

Q: Requested field: IC50. Item: CCCC[C@H](NC(=O)O[C@@H](c1ccc(F)cc1)C(F)(F)c1cccc(Cl)c1)C(=O)N[C@@H](C[C@@H]1CCNC1=O)C(=O)C(=O)NC1CC1 [Compound A199]
A: 0.494 µM

Q: Param item: CCC[C@H](NC(=O)OC(c1ccccc1)C(F)(F)c1cccc(Cl)c1)C(=O)N[C@@H](C[C@@H]1CCNC1=O)C(=O)C(=O)NC1CC1 (stereo partly drawn) [Compound A109]
A: 0.17 µM

Q: Param item: CCCC[C@H](NC(=O)OC(c1ccc(F)cc1)C1(c2cccc(F)c2)CC1)C(=O)N[C@H](C=O)C[C@@H]1CCNC1=O (stereo partly drawn) [Compound A64]
A: 0.003 µM

Q: Param item: O=C(N[C@@H](CCC(F)F)C(=O)N[C@@H](C[C@@H]1CCNC1=O)C(=O)C(=O)NC1CC1)O[C@@H](c1ccccc1)C(F)(F)c1cccc(Cl)c1 [Compound A227]
A: 0.412 µM

Q: Param item: CC(C)C[C@H](NC(=O)O[C@H](c1ccc(F)cc1)C(F)(F)c1cccc(Cl)c1)C(=O)N[C@@H](C[C@@H]1CCNC1=O)C(=O)C(=O)NC1CC1 [Compound A9]
A: 0.0001 µM

Q: Param item: CC(C)C[C@H](NC(=O)O[C@@H](c1ccccc1)C(C)(C)c1cccc(Cl)c1)C(=O)N[C@H](C=O)C[C@@H]1CCCNC1=O [Compound A158]
A: 0.002 µM

Q: Param item: CCCC[C@H](NC(=O)O[C@H](c1ccccc1)C(F)(F)c1cccc(Cl)c1)C(=O)N[C@H](C=O)C[C@@H]1CCNC1=O [Compound A110]
A: 0.0002 µM
